Just for reference, patent US4409228A is where these values come from.

assay: Acute toxicity, LD50 in the rat by the oral route; assay type: in vivo; conditions: in vivo
Where a name gives a salt, the structure may show the parent alone.
Result type: LD50 (mg/kg)

[[record]]
molecule = "Clc1cncc(N2CCNCC2)n1 [1-(6-chloro-2-pyrazinyl)piperazine HCl, 1-(6-chloro-2-pyrazinyl) piperazine]"
result_type = "LD50"
number = 79.6

[[record]]
molecule = "NC1CCN(c2cccc(Cl)n2)CC1 [CM 57227]"
result_type = "LD50"
number = 190

[[record]]
molecule = "Clc1cccc(N2CCNCC2)n1 [1-(6-chloro-2-pyridyl)piperazine HCl, 1-(6-chloro-2-pyridyl)piperazine]"
result_type = "LD50"
number = 174


* * *

experiment: Acute toxicity, LD50 in the rat by the oral route; format: in vivo; details: in vivo, ratio acute toxicity LD50 / anorexiant ED50 (therapeutic index), read-out: A/B
Where a name gives a salt, the structure may show the parent alone.
Result type: selectivity ratio

[[record]]
molecule = "Clc1cccc(N2CCNCC2)n1 [1-(6-chloro-2-pyridyl)piperazine HCl, 1-(6-chloro-2-pyridyl)piperazine]"
number = 48.3

[[record]]
molecule = "Clc1cncc(N2CCNCC2)n1 [1-(6-chloro-2-pyrazinyl)piperazine HCl, 1-(6-chloro-2-pyrazinyl) piperazine]"
number = 46.8

[[record]]
molecule = "CCNC(C)Cc1cccc(C(F)(F)F)c1 (stereo not shown)"
number = 25.2

[[record]]
molecule = "NC1CCN(c2cccc(Cl)n2)CC1"
number = 24.3


* * *

assay: Locomotor activity in the rat, oral (inhibition of spontaneous motility, photoelectric cell); format: in vivo; conditions: in vivo, ratio locomotor ID50 / anorexiant ED50 (therapeutic index), oral, read-out: C/B
Where a name gives a salt, the structure may show the parent alone.
Result type: selectivity ratio

[[record]]
compound = "NC1CCN(c2cccc(Cl)n2)CC1 [CM 57227]"
number = 7.7

[[record]]
compound = "Clc1cccc(N2CCNCC2)n1 [1-(6-chloro-2-pyridyl)piperazine HCl, 1-(6-chloro-2-pyridyl)piperazine]"
number = 0.58

[[record]]
compound = "Clc1cncc(N2CCNCC2)n1 [1-(6-chloro-2-pyrazinyl)piperazine HCl, 1-(6-chloro-2-pyrazinyl) piperazine]"
number = 0.3

[[record]]
compound = "CCNC(C)Cc1cccc(C(F)(F)F)c1 (stereo not shown) [fenfluramine]"
number = 3


* * *

experiment: Locomotor activity in the rat, oral (inhibition of spontaneous motility, photoelectric cell); assay type: in vivo; details: in vivo, female rats, oral dose inhibiting spontaneous motility by 50%, pulses during 10 minutes, 30 minutes after treatment, read-out: C locom. act. inhibition ID50
Counter-ions that a name gives are not always drawn.
molecules and their reported ED50 at 0.5 h
Result type: ED50 at 0.5 h (mg/kg)

[[record]]
molecule = "Clc1cncc(N2CCNCC2)n1 [1-(6-chloro-2-pyrazinyl)piperazine HCl, 1-(6-chloro-2-pyrazinyl) piperazine]"
unit_tag = "mg/kg"
number = 0.6

[[record]]
molecule = "CCNC(C)Cc1cccc(C(F)(F)F)c1 (stereo not shown)"
unit_tag = "mg/kg"
number = 12

[[record]]
molecule = "Clc1cccc(N2CCNCC2)n1 [1-(6-chloro-2-pyridyl)piperazine HCl, 1-(6-chloro-2-pyridyl)piperazine]"
unit_tag = "mg/kg"
number = 2.1

[[record]]
molecule = "NC1CCN(c2cccc(Cl)n2)CC1"
unit_tag = "mg/kg"
number = 60


* * *

Tested on: male mice
Test: Acute toxicity, zone of mortality, mice, intraperitoneal
Format: in vivo
Details: i.p., 48 h observation, doses with lowest (at least 1 death) and highest mortality
Procedure: With respect to their degree of activity, the 4-amino-1-(2-pyridyl)piperidines of the present invention are sparingly toxic and present a good therapeutic index. In Table I hereinbelow, the acute toxicity is expressed in the form of "zone of mortality". 6 batches of male mice weighing about 20 g were used, in which were injected the compounds of the present invention, dissolved or suspended in carboxymethylcellulose, by the intraperitoneal route, at at least four doses for each batch of animals. […]
compounds and their reported Mortality zone
Result type: Mortality zone

[[record]]
compound_structure = "COc1cccc(N2CCC(N)CC2)n1"
test_system = "male mice"
result_type = "Mortality zone"
result = "150 to 200 mg/kg"

[[record]]
compound_structure = "Cc1cccc(N2CCC(N)CC2)n1"
test_system = "male mice"
result_type = "Mortality zone"
result = "175 to 225 mg/kg"

[[record]]
compound_structure = "NC1CCN(c2cccc(OCC(F)(F)F)n2)CC1"
test_system = "male mice"
result_type = "Mortality zone"
result = "150 to 250 mg/kg"

[[record]]
compound_structure = "NC1CCN(c2cccc(Sc3ccccc3)n2)CC1"
test_system = "male mice"
result_type = "Mortality zone"
result = "150 to 200 mg/kg"

[[record]]
compound_structure = "NC1CCN(c2cccc(Br)n2)CC1"
test_system = "male mice"
result_type = "Mortality zone"
result = "100 to 175 mg/kg"

[[record]]
compound_structure = "NC1CCN(c2cccc(Cl)n2)CC1"
test_system = "male mice"
result_type = "Mortality zone"
result = "100 to 150 mg/kg"

